test system: MV4-11 cells (FLT3 ITD); test: in vitro standard cytotoxicity assay (MTS), Ven and/or 5-Aza 48 h followed by Men 24 h; format: cell-based, human; settings: single agent cytotoxic assay, same time points as combination, read-out: IC50 dose level
ENDPOINT NAME: pIC50
Answer as the number alone; pIC50 is minus log10 of concentration in mol/L.

State recorded pIC50 with MV4-11 cells (FLT3 ITD), entry CC(C)n1c(C2CCNCC2)nc2c([N+](=O)[O-])c(Br)c(Br)cc21 , no comment.
6.44

###

The following molecules are shown together with reported pIC50 values.
test system: KG1 cells (FLT3 wt); assay: in vitro standard cytotoxicity assay (MTS), Ven and/or 5-Aza 48 h followed by Men 24 h; assay type: cell-based, human; conditions: Homo sapiens, KG-1, single agent cytotoxic assay, same time points as combination, read-out: IC50 dose level
Quick note: pIC50 values are minus log10 of concentrations in mol/L.

Nc1ncn([C@@H]2O[C@H](CO)[C@@H](O)[C@H]2O)c(=O)n1 6.12

Here's the next entry for you.
Let me know recorded pIC50 for CC1(C)CCC(CN2CCN(c3ccc(C(=O)NS(=O)(=O)c4ccc(NCC5CCOCC5)c([N+](=O)[O-])c4)c(Oc4cnc5[nH]ccc5c4)c3)CC2)=C(c2ccc(Cl)cc2)C1 , thanks.
5.78
